This collection of values is drawn from patent US9957265B2.

Listing of recorded IC50 by entry.
Biological target: JAK1 (Homo sapiens (Human), UniProt P23458)
Sequence (P23458 875-1153): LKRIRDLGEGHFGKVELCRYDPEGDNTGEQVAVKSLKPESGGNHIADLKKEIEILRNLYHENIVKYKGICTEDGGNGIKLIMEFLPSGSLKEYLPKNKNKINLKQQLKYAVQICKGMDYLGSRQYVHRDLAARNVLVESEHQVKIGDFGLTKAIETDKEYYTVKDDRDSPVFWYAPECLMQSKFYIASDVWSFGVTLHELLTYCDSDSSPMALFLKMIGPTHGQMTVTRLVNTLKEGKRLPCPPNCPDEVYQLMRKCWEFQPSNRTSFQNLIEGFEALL
Test: Jak Biochemical HTRF Assay (JAK1)
Details: recombinant GST-tagged catalytic domain, [ATP] 31.8 μM, unit not given (compound concentrations tested given in nM)

Compound	IC50
CN1CCN(C(c2ccc(Nc3nn([C@H]4COCC[C@@H]4C#N)c4cc[nH]c(=O)c34)cc2)C(F)(F)F)CC1 (single isomer, unassigned) [Example 1-37]	0.22 nM
C[C@@H]1CN(S(=O)(=O)c2ccc(Nc3nn([C@H]4COCC[C@@H]4C#N)c4cc[nH]c(=O)c34)cc2)C[C@H](C)O1	0.35 nM
N#C[C@H]1CCOCC1n1nc(Nc2ccc(C(O)(c3ccncc3)C(F)(F)F)cc2)c2c(=O)[nH]ccc21 (single isomer, unassigned) [Example 1-94]	0.08 nM

###

Biological target: JAK2 (Homo sapiens (Human))
Sequence (O60674 849-1124): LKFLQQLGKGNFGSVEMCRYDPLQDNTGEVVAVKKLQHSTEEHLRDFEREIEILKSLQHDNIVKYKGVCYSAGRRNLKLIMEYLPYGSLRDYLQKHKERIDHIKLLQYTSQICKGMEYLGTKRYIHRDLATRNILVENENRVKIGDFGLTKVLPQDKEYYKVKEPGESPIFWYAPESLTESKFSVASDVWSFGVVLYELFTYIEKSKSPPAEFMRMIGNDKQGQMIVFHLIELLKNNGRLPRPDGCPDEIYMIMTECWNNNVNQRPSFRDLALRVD
Assay: Jak Biochemical HTRF Assay (JAK2)
Conditions: JAK2 IC50, recombinant GST-tagged catalytic domain, [ATP] 8.5 μM, unit not given (compound concentrations tested given in nM)
Listing of recorded IC50 by entry.

Compound	IC50 [nM]
N#C[C@H]1CCOCC1n1nc(Nc2ccc(C(O)(c3ccncc3)C(F)(F)F)cc2)c2c(=O)[nH]ccc21 (single isomer, unassigned) [Example 1-95]	0.09
CC(C)NC(c1ccc(Nc2nn([C@H]3COCC[C@@H]3C#N)c3cc[nH]c(=O)c23)cc1)C(F)(F)F (single isomer, unassigned) [Example 1-53]	0.09
CC(C)(C)CNC(c1ccc(Nc2nn([C@H]3COCC[C@@H]3C#N)c3cc[nH]c(=O)c23)cc1)C(F)(F)F (single isomer, unassigned) [Example 1-83]	1.06

###

Biological target: UniProt:O60674
Test: Jak Biochemical HTRF Assay (JAK2)
Details: read-out: JAK2 IC50, recombinant GST-tagged catalytic domain, [ATP] 8.5 μM, unit not given (compound concentrations tested given in nM)
Listing of recorded IC50 by entry.
Value type: IC50 (nM)

1. COc1cc(Nc2nn([C@H]3COCC[C@@H]3C#N)c3cc[nH]c(=O)c23)ccc1F 2.52
2. CC(C)(C)OC(=O)CN1Cc2cc(Nc3nn([C@H]4COCC[C@@H]4C#N)c4cc[nH]c(=O)c34)ccc2S1(=O)=O 0.3
3. CC(C)NC(C)(C)c1ccc(Nc2nn([C@H]3COCC[C@@H]3C#N)c3cc[nH]c(=O)c23)cc1 0.3
4. CN(C)S(=O)(=O)c1ccc(Nc2nn([C@H]3COCC[C@@H]3C#N)c3cc[nH]c(=O)c23)cn1 1.92
5. CN1Cc2cc(Nc3nn([C@H]4COCC[C@@H]4C#N)c4cc[nH]c(=O)c34)ccc2S1(=O)=O 0.34
6. CC(C)CN1Cc2ccc(Nc3nn([C@H]4COCC[C@@H]4C#N)c4cc[nH]c(=O)c34)cc2C1 0.41
7. CN(C)S(=O)(=O)c1ccc(Nc2nn([C@H]3COCC[C@@H]3C#N)c3cc[nH]c(=O)c23)cc1 0.21

###

Listing of recorded IC50 by entry.
Biological target: JAK1 (Homo sapiens (Human), UniProt P23458)
Test: Jak Biochemical HTRF Assay (JAK1)
Settings: recombinant GST-tagged catalytic domain, [ATP] 31.8 μM, unit not given (compound concentrations tested given in nM)
Value type: IC50 (nM)

Compound	Value type	Units symbol	Reported result
CC(C)(C)CNC(c1ccc(Nc2nn([C@H]3COCC[C@@H]3C#N)c3cc[nH]c(=O)c23)cc1)C(F)(F)F (single isomer, unassigned) [Example 1-82]	IC50	nM	0.87
CCNC(c1ccc(Nc2nn([C@H]3COCC[C@@H]3C#N)c3cc[nH]c(=O)c23)cc1)C(F)(F)F (single isomer, unassigned) [Example 1-55]	IC50	nM	0.08
COC(=N)c1cc(Nc2nn([C@H]3COCC[C@@H]3C#N)c3cc[nH]c(=O)c23)ccc1O	IC50	nM	0.36
N#C[C@H]1CCOC[C@@H]1n1nc(Nc2ccc(C(N)C(F)(F)F)cc2)c2c(=O)[nH]ccc21 (single isomer, unassigned) [Example 1-8]	IC50	nM	0.06
CC1CCCN1C(c1ccc(Nc2nn([C@H]3COCC[C@@H]3C#N)c3cc[nH]c(=O)c23)cc1)C(F)(F)F (single isomer, unassigned) [Example 1-87]	IC50	nM	0.15
N#C[C@H]1CCOCC1n1nc(Nc2ccc(C(O)(c3ccccn3)C(F)(F)F)cc2)c2c(=O)[nH]ccc21 (single isomer, unassigned) [Example 1-96]	IC50	nM	0.07
N#C[C@H]1CCOC[C@@H]1n1nc(Nc2ccc(C(NC3CCCC3)C(F)(F)F)cc2)c2c(=O)[nH]ccc21 (single isomer, unassigned) [Example 1-84]	IC50	nM	0.13
CCC(C)(C)S(=O)(=O)c1ccc(Nc2nn([C@H]3COCC[C@@H]3C#N)c3cc[nH]c(=O)c23)cc1	IC50	nM	0.09
N#C[C@H]1CCOC[C@@H]1n1nc(Nc2ccccc2)c2c(=O)[nH]ccc21	IC50	nM	0.11
CN(C)C(c1ccc(Nc2nn([C@H]3COCC[C@@H]3C#N)c3cc[nH]c(=O)c23)cc1)C(F)(F)F (single isomer, unassigned) [Example 1-58]	IC50	nM	0.07
CC1(C)CC2(c3ccc(Nc4nn([C@H]5COCC[C@@H]5C#N)c5cc[nH]c(=O)c45)cc3)CCC1C(=O)O2 (some centres unmarked) [Example 1-21]	IC50	nM	0.08
CC1c2cc(Nc3nn([C@H]4COCC[C@@H]4C#N)c4cc[nH]c(=O)c34)ccc2S(=O)(=O)N1C (single isomer, unassigned)	IC50	nM	0.03
CC(C)(C)S(=O)(=O)c1ccc(Nc2nn([C@@H]3CCOCC[C@@H]3C#N)c3cc[nH]c(=O)c23)cc1 (single isomer, unassigned)	IC50	nM	4.38
COC(C)(c1ccc(Nc2nn([C@H]3COCC[C@@H]3C#N)c3cc[nH]c(=O)c23)cc1)C(F)(F)F (single isomer, unassigned)	IC50	nM	0.04
CC(C)(C)OC(=O)CNC(c1ccc(Nc2nn([C@H]3COCC[C@@H]3C#N)c3cc[nH]c(=O)c23)cc1)C(F)(F)F (single isomer, unassigned) [Example 1-41]	IC50	nM	0.14
N#C[C@H]1CCOC[C@@H]1n1nc(Nc2ccc(C(N3CCNCC3)C(F)(F)F)cc2)c2c(=O)[nH]ccc21 (single isomer, unassigned) [Example 1-38]	IC50	nM	0.09
CC1CCN1S(=O)(=O)c1ccc(Nc2nn([C@H]3COCC[C@@H]3C#N)c3cc[nH]c(=O)c23)cc1 (single isomer, unassigned) [Example 1-77]	IC50	nM	0.05
CC1(C)CC1NC(c1ccc(Nc2nn([C@H]3COCC[C@@H]3C#N)c3cc[nH]c(=O)c23)cc1)C(F)(F)F (single isomer, unassigned) [Example 1-47]	IC50	nM	0.27
CC(C)(C)S(=O)(=O)c1ccc(Nc2nn([C@@H]3CCOCC[C@H]3C#N)c3cc[nH]c(=O)c23)cc1 (single isomer, unassigned)	IC50	nM	22.4
CN(C)S(=O)(=O)c1ccc(Nc2nn([C@H]3COCC[C@@H]3C#N)c3cc[nH]c(=O)c23)cn1	IC50	nM	0.7
N#C[C@H]1CCOC[C@@H]1n1nc(Nc2ccc(C(NC3CC3)C(F)(F)F)cc2)c2c(=O)[nH]ccc21 (single isomer, unassigned) [Example 1-81]	IC50	nM	0.08
N#C[C@H]1CCOCC1n1nc(Nc2ccc(C(O)(c3ccncc3)C(F)(F)F)cc2)c2c(=O)[nH]ccc21 (single isomer, unassigned) [Example 1-95]	IC50	nM	0.06
CC1(C)CC1NC(c1ccc(Nc2nn([C@H]3COCC[C@@H]3C#N)c3cc[nH]c(=O)c23)cc1)C(F)(F)F (single isomer, unassigned) [Example 1-49]	IC50	nM	0.18

###

Listing of recorded log10 of IC50 by entry.
Target: UniProt:P23458
Experiment: Jak Biochemical HTRF Assay (JAK1)
Settings: recombinant GST-tagged catalytic domain, [ATP] 31.8 μM, unit not given (compound concentrations tested given in nM)
Value type: log10 of IC50 (log10 of the value in nM)

Compound	log10 of IC50
CC(C)S(=O)(=O)c1ccc(Nc2nn([C@H]3COCC[C@@H]3C#N)c3cc[nH]c(=O)c23)cc1	-1.05
CC1CCCN1C(c1ccc(Nc2nn([C@H]3COCC[C@@H]3C#N)c3cc[nH]c(=O)c23)cc1)C(F)(F)F (single isomer, unassigned) [Example 1-86]	-0.82
CC(C)CN1Cc2ccc(Nc3nn([C@H]4COCC[C@@H]4C#N)c4cc[nH]c(=O)c34)cc2C1	-0.66
N#C[C@H]1CCOC[C@@H]1n1nc(Nc2ccc(C(N3CCCC3)C(F)(F)F)cc2)c2c(=O)[nH]ccc21 (single isomer, unassigned) [Example 1-43]	-1.40
CC(C)(C)S(=O)(=O)c1ccc(Nc2nn([C@H]3CCOCC[C@H]3C#N)c3cc[nH]c(=O)c23)cc1 (single isomer, unassigned)	0.73
N#C[C@H]1CCOC[C@@H]1n1nc(Nc2ccc(S(=O)(=O)N3CCC3)cc2)c2c(=O)[nH]ccc21	-1.10
